target: Delta-type opioid receptor (Homo sapiens, UniProt P41143); assay: Ability to displace [3H]DPDPE from human recombinant Opioid receptor delta 1 in CHO cells; format: cell-based
Sequence (P41143 whole entry): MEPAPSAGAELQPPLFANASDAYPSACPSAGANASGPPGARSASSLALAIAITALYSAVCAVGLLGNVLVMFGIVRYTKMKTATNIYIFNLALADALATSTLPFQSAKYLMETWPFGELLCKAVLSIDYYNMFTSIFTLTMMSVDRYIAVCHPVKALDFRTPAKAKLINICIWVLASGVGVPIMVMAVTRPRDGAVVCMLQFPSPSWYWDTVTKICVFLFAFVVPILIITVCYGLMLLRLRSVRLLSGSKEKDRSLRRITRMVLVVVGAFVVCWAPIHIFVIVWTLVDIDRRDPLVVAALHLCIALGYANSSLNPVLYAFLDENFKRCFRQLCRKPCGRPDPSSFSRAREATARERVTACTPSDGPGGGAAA
pKi: −log10 of the molar value.
Decision: pKi >= 8 yields yes (1), all other cases yield no (0).

test.smiles	assigned.class
CCNC(=O)NCCc1ccc2[nH]c3c(c2c1)C[C@@]1(O)C2Cc4ccc(O)c5c4[C@@]1(CCN2CC1CC1)[C@H]3O5	yes (1)
CCC(=N)NCCc1ccc2[nH]c3c(c2c1)C[C@@]1(O)C2Cc4ccc(O)c5c4[C@@]1(CCN2CC1CC1)[C@H]3O5	no (0)
CC(C)CC(=N)NCCc1ccc2[nH]c3c(c2c1)C[C@@]1(O)C2Cc4ccc(O)c5c4[C@@]1(CCN2CC1CC1)[C@H]3O5	no (0)
O=C(NCCCCc1ccccc1)c1ccc2[nH]c3c(c2c1)C[C@@]1(O)C2Cc4ccc(O)c5c4[C@@]1(CCN2CC1CC1)[C@H]3O5	no (0)
O=C(NCCc1ccccc1)c1ccc2[nH]c3c(c2c1)C[C@@]1(O)C2Cc4ccc(O)c5c4[C@@]1(CCN2CC1CC1)[C@H]3O5	yes (1)

Reference source for all entries: ChEMBL document CHEMBL1145106
